# target_or_test_system: Sirt2_56-356 (Homo sapiens, UniProt Q8IXJ6)
# Sequence (Q8IXJ6 56-356): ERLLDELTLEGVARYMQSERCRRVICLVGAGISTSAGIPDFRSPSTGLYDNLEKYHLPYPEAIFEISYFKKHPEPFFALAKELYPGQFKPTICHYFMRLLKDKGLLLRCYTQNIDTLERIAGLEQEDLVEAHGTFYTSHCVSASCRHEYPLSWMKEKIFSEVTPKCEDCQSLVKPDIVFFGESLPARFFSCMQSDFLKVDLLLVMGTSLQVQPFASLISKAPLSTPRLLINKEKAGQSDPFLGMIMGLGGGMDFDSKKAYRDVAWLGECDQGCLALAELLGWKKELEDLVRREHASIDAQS
# procedure_text: Fluorescence polarization assay
# Type: binding
recorded_metric: IC50 (µM)
Numbers only, in µM.

Give reported IC50 value for Cc1cc(C)nc(SCC(=O)Nc2ncc(Cc3cccc(OCc4cn(Cc5ccc(OCCN6CCOCC6)cc5)nn4)c3)s2)n1 [Compound 12] 0.07

###

# target_or_test_system: N-terminally labelled Nluc-Sirt2 fusion protein (Homo sapiens, UniProt Q8IXJ6)
# Sequence (Q8IXJ6 50-356): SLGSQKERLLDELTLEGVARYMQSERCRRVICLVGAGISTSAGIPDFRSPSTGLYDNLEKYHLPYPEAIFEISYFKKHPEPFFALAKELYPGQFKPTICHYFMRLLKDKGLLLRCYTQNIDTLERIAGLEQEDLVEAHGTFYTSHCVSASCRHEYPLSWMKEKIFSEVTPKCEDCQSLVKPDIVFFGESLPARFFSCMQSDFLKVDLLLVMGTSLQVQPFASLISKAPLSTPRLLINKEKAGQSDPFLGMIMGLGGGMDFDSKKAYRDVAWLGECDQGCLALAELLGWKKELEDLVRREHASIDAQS
# procedure_text: NanoBRET assay, N-terminal Nluc-Sirt2 fusion in HEK293T cells
# measurement_conditions: read-out: NanoBRET assay IC50; tracer 13 2 μM, HEK293T, 2 h, mean ± SD
recorded_metric: pIC50
Answers are plain numbers, as −log10 of the molar value.

Write down pIC50 measured for item O=C(NCc1cccnc1)c1ccc2c(c1)C1C3CCC(C3)C1C(c1ccccc1)N2 (stereo not shown) [AEM2, reference compound] 5.28
